Entries and their IC50
# Assayed system: FGFR1 (h) (Homo sapiens)
# Sequence (P11362 22-822): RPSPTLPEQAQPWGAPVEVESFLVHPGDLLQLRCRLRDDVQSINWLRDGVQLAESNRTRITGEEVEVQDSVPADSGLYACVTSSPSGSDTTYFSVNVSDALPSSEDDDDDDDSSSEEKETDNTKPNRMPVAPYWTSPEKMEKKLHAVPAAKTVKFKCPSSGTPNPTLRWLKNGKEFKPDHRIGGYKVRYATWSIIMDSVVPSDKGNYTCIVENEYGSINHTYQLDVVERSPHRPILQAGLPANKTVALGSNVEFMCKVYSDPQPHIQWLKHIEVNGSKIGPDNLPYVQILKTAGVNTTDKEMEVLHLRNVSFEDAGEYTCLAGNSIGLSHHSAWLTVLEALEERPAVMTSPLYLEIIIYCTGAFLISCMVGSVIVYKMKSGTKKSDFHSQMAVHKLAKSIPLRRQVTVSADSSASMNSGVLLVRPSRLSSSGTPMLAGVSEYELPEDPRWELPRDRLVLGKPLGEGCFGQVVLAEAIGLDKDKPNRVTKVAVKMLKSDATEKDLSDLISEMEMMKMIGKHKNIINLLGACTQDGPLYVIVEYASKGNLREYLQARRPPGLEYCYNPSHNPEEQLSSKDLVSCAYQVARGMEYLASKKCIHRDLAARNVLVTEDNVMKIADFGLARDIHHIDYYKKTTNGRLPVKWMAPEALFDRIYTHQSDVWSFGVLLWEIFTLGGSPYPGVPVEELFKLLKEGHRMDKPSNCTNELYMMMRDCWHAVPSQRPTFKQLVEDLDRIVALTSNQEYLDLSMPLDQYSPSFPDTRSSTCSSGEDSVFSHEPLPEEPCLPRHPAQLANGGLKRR
# Assay method text: FGFR1 (enzymatic assay), TR-FRET
# Type: biochemical
# Setup conditions: read-out: FGFR 1 pIC50 (converted)
Just the number in nM, nothing appended.

Recorded IC50, per entry:
# Molecule, Assay endpoint, Data value
data = [
    ("COc1cc(OC)c(F)c(N(Cc2ncc[nH]2)c2ccc3ncc(-c4cnn(C(CO)CCl)c4)nc3n2)c1 (stereo not shown)", "IC50", 0.776),
    ("COc1cc(OC)c(F)c(N(CC2COC(=O)N2)c2ccc3ncc(-c4cnn(C)c4)nc3n2)c1 (stereo not shown)", "IC50", 3.09),
    ("COc1cc(OC)c(F)c(N(Cc2nc(C)c[nH]2)c2ccc3ncc(-c4cnn(C)c4)nc3n2)c1", "IC50", 1.17),
    ("COc1cc(OC)c(F)c(N(Cc2cc(C)no2)c2ccc3ncc(-c4cnn(C)c4)nc3n2)c1", "IC50", 0.851),
    ("COc1cc(OC)c(F)c(N(Cc2ncc[nH]2)c2ccc3ncc(-c4cnn(C5COC5)c4)nc3n2)c1", "IC50", 0.603),
]

Ask: Fill in reported IC50 for this entry: COc1cc(OC)cc(N(Cc2ncc[nH]2)c2ccc3ncc(-c4cnn(C5CCNCC5)c4)nc3n2)c1
Reply: 0.562

Ask: Consider the molecule COc1cc(OC)c(F)c(N(CCNC2COC2)c2ccc3ncc(-c4cnn(C)c4)nc3n2)c1 . State its measured IC50.
Reply: 1.51

---

Reported melting point values follow for various compounds
Report only the number, with the unit °C understood.

Solved cases (3 shown):
# Compound, Unit text, melting point
records = [
    ("COc1cc(OC)cc(N(CC(O)C(F)(F)F)c2ccc3ncc(-c4cnn(C)c4)nc3n2)c1 (single isomer, unassigned)", "°C", 208),
    ("COc1cc(OC)c(F)c(N(Cc2nn[nH]n2)c2ccc3ncc(-c4cnn(C)c4)nc3n2)c1", "°C", 149),
    ("COc1cc(OC)c(F)c(N(CCNC(C)C)c2ccc3ncc(-c4cnn(C)c4)nc3n2)c1F", "°C", 183),
]

From here, focus on the item given below.
Ask: Kindly indicate its recorded melting point. Item: COc1cc(OC)c(F)c(/N=c2\ccc3ncc(-c4cnn(C)c4)nc3n2CCCO)c1F (single isomer, unassigned)
Reply: 206

---

Catalogue of compounds with associated IC50
# Assayed system: KDR (h) (Homo sapiens, UniProt P35968)
# Sequence (P35968 20-1356): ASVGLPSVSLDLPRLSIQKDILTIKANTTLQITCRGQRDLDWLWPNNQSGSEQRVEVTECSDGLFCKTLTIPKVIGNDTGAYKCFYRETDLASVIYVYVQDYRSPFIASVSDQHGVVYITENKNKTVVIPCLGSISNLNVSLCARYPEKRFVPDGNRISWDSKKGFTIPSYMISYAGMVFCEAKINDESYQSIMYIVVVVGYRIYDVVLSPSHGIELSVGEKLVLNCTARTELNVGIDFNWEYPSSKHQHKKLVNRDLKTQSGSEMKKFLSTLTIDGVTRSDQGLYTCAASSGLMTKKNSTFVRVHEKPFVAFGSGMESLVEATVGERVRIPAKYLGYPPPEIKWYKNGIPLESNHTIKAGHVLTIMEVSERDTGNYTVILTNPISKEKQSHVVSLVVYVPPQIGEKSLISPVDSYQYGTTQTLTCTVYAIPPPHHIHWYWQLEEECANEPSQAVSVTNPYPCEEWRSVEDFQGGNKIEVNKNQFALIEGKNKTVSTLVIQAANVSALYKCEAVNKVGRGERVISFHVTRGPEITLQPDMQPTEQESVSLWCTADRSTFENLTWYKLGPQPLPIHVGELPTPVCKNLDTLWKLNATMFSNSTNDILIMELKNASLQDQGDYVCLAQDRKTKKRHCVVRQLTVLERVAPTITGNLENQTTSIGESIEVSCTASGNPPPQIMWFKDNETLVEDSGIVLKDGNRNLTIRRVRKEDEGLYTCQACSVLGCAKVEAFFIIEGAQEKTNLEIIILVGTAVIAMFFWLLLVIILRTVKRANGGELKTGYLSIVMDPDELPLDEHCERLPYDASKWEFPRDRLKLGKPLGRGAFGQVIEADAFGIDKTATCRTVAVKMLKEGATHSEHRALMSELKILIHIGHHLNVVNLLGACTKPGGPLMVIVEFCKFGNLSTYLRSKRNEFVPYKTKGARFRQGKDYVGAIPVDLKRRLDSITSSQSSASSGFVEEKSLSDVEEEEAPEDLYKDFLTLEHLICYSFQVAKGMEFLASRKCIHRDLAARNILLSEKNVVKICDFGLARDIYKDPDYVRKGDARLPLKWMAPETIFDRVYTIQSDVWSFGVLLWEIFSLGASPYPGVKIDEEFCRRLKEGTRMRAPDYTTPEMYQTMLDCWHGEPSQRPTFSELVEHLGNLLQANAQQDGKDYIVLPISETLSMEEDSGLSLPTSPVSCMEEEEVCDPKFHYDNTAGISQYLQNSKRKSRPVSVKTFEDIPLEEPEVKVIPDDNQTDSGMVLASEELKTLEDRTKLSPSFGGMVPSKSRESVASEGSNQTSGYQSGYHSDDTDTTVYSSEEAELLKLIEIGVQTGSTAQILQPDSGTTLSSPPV
# Assay method text: KDR (VEGFR2) (enzymatic assay), TR-FRET
# Format: biochemical
# Setup conditions: read-out: VEGFR 2 (KDR) pIC50 (converted)
Answer in nM, number only, no unit symbol.

# Compound, Assay endpoint, Data value
measured = [
    ("COc1cc(OC)c(F)c(/N=c2\\ccc3ncc(-c4cnn(C)c4)nc3n2CC2CC2)c1F (single isomer, unassigned)", "IC50", 12.6),
    ("COc1cc(OC)c(F)c(N(CC2CCOC2)c2ccc3ncc(-c4cnn(C)c4)nc3n2)c1 (single isomer, unassigned) [Compound 172]", "IC50", 45.7),
    ("COc1cc(OC)cc(N(Cc2ncc[nH]2)c2ccc3ncc(-c4ccn(C)c4)nc3n2)c1", "IC50", 4.57),
]

Now examine the next entry.
Ask: Report the value of IC50 obtained on KDR (h) (Homo sapiens, UniProt P35968) for CCN(c1ccc2ncc(-c3cnn(C)c3)nc2n1)c1c(F)c(OC)cc(OC)c1F .
Reply: 8.71
